Measured LC50, CL, listed per entry.
tested on: Cabbage Looper [Trichoplusia ni (Hubner)]; assay: Cabbage looper insecticidal test; type: in vivo; conditions: second-instar larvae, percent in solution; 3-5 days
measurementName: LC50, CL (%)

| smilesData | limitSign | quantitativeReadout |
| --- | --- | --- |
| CCC(=Nc1ccc(Cl)cc1)OCc1cccc(Oc2ccccc2)c1 | = | 0.025 |
| Cc1ccc(N=C(OCc2cccc(Oc3ccc(F)cc3)c2)C(C)C)cc1Cl | > | 0.1 |
| CC(C)C(=Nc1ccc(F)c(Br)c1)OCc1cccc(Oc2ccc(Cl)cc2)c1 | < | 0.1 |
| CC(C)C(=Nc1cccc(Br)c1)OCc1ccc(F)c(Oc2ccc(Cl)cc2)c1 | = | 0.0012 |
| CC(C)C(=Nc1ccc(F)c(C(F)(F)F)c1)OCc1ccc(F)c(Oc2ccccc2)c1 | = | 0.0003 |
| CC(C)C(=Nc1ccc(C2CCCCC2)cc1)OCc1cccc(Oc2ccc(F)cc2)c1 | = | 0.024 |
| CC(C)C(=Nc1ccc(C(F)(F)F)cc1)OCc1ccc(F)c(Oc2ccc(Cl)cc2)c1 | = | 0.00014 |
| C=C(C)C(=Nc1ccc(Cl)cc1)OCc1cccc(Oc2ccccc2)c1 | = | 0.02 |

Hello, the source for this data is patent US5070210A, in case you need it.
